B1: tRNA (parent)
chain: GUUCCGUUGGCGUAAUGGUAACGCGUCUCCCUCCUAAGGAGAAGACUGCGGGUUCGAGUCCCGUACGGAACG

Variants of: B1
Assay: yeast fitness relative to wild type (ratio to wild type); higher = fitter; tRNA-Arg(CCU), competitive growth, 37 C, YPD
This sample holds only a part of the variants without activity.
property_label: yeast fitness
Enter a number only.

In [3]: df
Out[3]:
            mutant_id  meas_value
0           G44A G56C       0.585
1           G41A A65C        0.67
2           A20U C33A       0.653
3  U8C C24G G38C U53G       0.635
4           A14G A65U       0.737

Incoming: Which measured yeast fitness value corresponds to C33A A40U ?
Outgoing: 0.741

Incoming: Which measured yeast fitness value corresponds to U3G A14G ?
Outgoing: 0.907

Incoming: Which measured yeast fitness value corresponds to C5A A21U ?
Outgoing: 0.621

Incoming: Which measured yeast fitness value corresponds to G10C G50A ?
Outgoing: 0.76

Incoming: Which measured yeast fitness value corresponds to C11U C24G C33A A40C C66U ?
Outgoing: 0.743

Incoming: Which measured yeast fitness value corresponds to C4G G23C ?
Outgoing: 0.587
